# EXPERIMENT: soluble on expression in E. coli; label from the status in PepcDB or PDB records
PROPERTY: soluble on expression in E. coli

IN: Indicate its recorded soluble on expression in E. coli; the sequence in question is `MSAPLKHPNAVVLQPPTVTISPLIRFGRYAALSLGVVYGFFRLRQIREYHADIREWDHEKAVAAAEEAAKKKKWLAKDEMRYLMQVVNIPFEEGVKQFGVADLYKED`
OUT: not soluble

IN: Indicate its recorded soluble on expression in E. coli; the sequence in question is `MIKTFKSKALAELYETGSSSKTDKKLFKRIIVRLDRLNVAEKPEEMNLPGFNFHALIGFHPIRYTVHINGPWCITFEFDSCNAYRVDLEQYH`
OUT: not soluble
